For each of the compounds below, state its GI50.
Test system: BT-549
testMethodNotes: NCI tumour cell line growth inhibition, 48 h
Active and inactive are the calls of the source. No stated cut-off is given here; in the data, active = GI50 up to about 1.1 µM and inactive = higher.

Q) Kindly state the measured GI50 obtained for Cc1ccc(/N=N/c2c(O)c(C(=O)Nc3ccccc3)cc3ccccc23)c([N+](=O)[O-])c1 with BT-549.
A) > 100 µM (inactive)

Q) Kindly state the measured GI50 obtained for COc1ccc2nc3cc([N+](=O)[O-])ccc3c(NNc3ccccc3)c2c1 with BT-549.
A) 28.5 µM (inactive)

Q) Kindly state the measured GI50 obtained for CCN(CC)c1ccc2cc(C(N)=O)/c(=N/c3ccc(F)cc3)oc2c1 with BT-549.
A) > 100 µM (inactive)

---

System: NCI-H23
testMethodNotes: NCI tumour cell line growth inhibition, 48 h
Active and inactive are the calls of the source. No stated cut-off is given here; in the data, active = GI50 up to about 1.1 µM and inactive = higher.
Just give me one of these, please: t = active, f = inactive

Q) Hello, I am checking results. What call was entered for C/C(=N\NC(=N)N)C(CN(C)C)C(c1ccccc1)c1c(O)c2ccccc2oc1=O (centres undefined) ?
A) f

Q) Hello, I am checking results. What call was entered for CC(NNC(=O)c1cc[n+]([BH2-]C#N)cc1)c1ccccc1 (centres undefined) ?
A) f

Q) Hello, I am checking results. What call was entered for CCC1(OC(=O)CNC)C(=O)OCc2c1cc1n(c2=O)Cc2cc3ccccc3nc2-1 (centres undefined) ?
A) t

Q) Hello, I am checking results. What call was entered for CCOC(=O)/C=C(/C(=O)OCC)n1ccc(=O)[nH]c1=O ?
A) f

---

Tested on: COLO 205
testMethodNotes: NCI tumour cell line growth inhibition, 48 h
Activity calls are given as the source filed them. Rule as the data show it: active = GI50 up to about 1.1 µM and inactive = higher.
Just give me one of these, please: active, inactive

Q) Hello, I am checking results. What call was entered for CC(=O)Oc1cccc2c(/C=N/NC(N)=S)ncc(C)c12 ?
A) inactive

Q) Hello, I am checking results. What call was entered for CC1(C)C[C@H]2C=C(C=O)[C@]34C[C@]3(C(=O)OC4O)[C@H]2C1 (stereo partly drawn) ?
A) active

Q) Hello, I am checking results. What call was entered for COc1ccc(NC(=S)C#N)cc1 ?
A) inactive

Q) Hello, I am checking results. What call was entered for CN(C(=O)c1ccccc1)C1CCCC(=O)CC1 (stereo not drawn) ?
A) inactive

Q) Hello, I am checking results. What call was entered for CCOC(=O)C1(Cc2ccc3ccccc3c2)CCCCC(=O)N1 (stereo not drawn) ?
A) inactive

Q) Hello, I am checking results. What call was entered for C[N+](C)(C)CC(=O)N/N=C(\Cc1nc2ccc([N+](=O)[O-])cc2nc1O)C(=O)Nc1nc2ccc([N+](=O)[O-])cc2s1 ?
A) inactive

Q) Hello, I am checking results. What call was entered for COc1ccc(C2CC(c3ccc4ccccc4c3O)=NN2)cc1OC (stereo not drawn) ?
A) inactive

Q) Hello, I am checking results. What call was entered for CC(=O)OC1CC2c3cccc4c3C(CC2N(C)C1=O)CN4C(=O)c1ccccc1 (stereo not drawn) ?
A) inactive

Q) Hello, I am checking results. What call was entered for Cc1cc2c(cc1-c1cc3c(cc1C)C(C(C)C)=C(O)C(=O)/C3=C\Nc1c3ccccc3nc3ccccc13)/C(=C/Nc1c3ccccc3nc3ccccc13)C(=O)C(O)=C2C(C)C ?
A) inactive

Q) Hello, I am checking results. What call was entered for Cc1ccc(C2(c3ccc(F)cc3)OC(=O)c3ccccc32)c(O)c1 (stereo not drawn) ?
A) inactive

Q) Hello, I am checking results. What call was entered for Cc1n[nH]c(=O)n1/N=C\c1ccccc1 ?
A) inactive

Q) Hello, I am checking results. What call was entered for CC(C)=CCCc1c(C)ccc2c1C(=O)C(=O)C(C(C)C)=C2 ?
A) inactive

Q) Hello, I am checking results. What call was entered for C[N+](C)(C)CC(=O)N/N=C\c1c(O)ccc2ccccc12 ?
A) inactive

Q) Hello, I am checking results. What call was entered for CC1(C)OC2C(O)C(CO)OC2(C(F)F)O1 (stereo not drawn) ?
A) inactive

Q) Hello, I am checking results. What call was entered for C=CCOCC1C2CCC3(OCCO3)C21 (stereo not drawn) ?
A) inactive

Q) Hello, I am checking results. What call was entered for O=C(/C=C/c1ccccc1)c1ccc(Cl)cc1Cl ?
A) inactive

Q) Hello, I am checking results. What call was entered for CCOC(=O)/C=C(/C(=O)OCC)n1ccc(=O)[nH]c1=O ?
A) inactive

Q) Hello, I am checking results. What call was entered for CC(=O)Nc1ccc(/C=c2\sc3nnc(-c4cccnc4)n3c2=O)cc1 ?
A) inactive
